assay.remarks: Genotoxicity in Salmonella typhimurium TA1535/pSK1002 assessed as DNA-damage activity by measuring beta-galactosidase activity at 7.5 ug/ml measured by SOS-chromotest relative to solvent control
Format: toxicity
conditions: salmonella enterica subsp. enterica serovar typhimurium; dose 7.5 µg/ml
value.kind: Ratio
Give bare numbers.

These recorded examples may help you get a feel for the data.
>  <compound>
CCCCCCCCCCCCCC(=O)OCC[N+](C)(C)Cc1cnc(C)c2c1COC(CCC)O2.[Cl-] (stereo not given)

>  <value.reported>
1.4

$$$$
>  <compound>
CCCCCCCCCCCCCC(=O)NCC[N+](C)(C)Cc1cnc(C)c2c1COC(C)(C)O2.[Cl-]

>  <value.reported>
1.5

$$$$
>  <compound>
CCCCCCCCCCCCCC(=O)NCC[N+](C)(C)Cc1cnc(C)c2c1COC(C)(CCC)O2.[Cl-] (stereo not given)

>  <value.reported>
1.5

$$$$
>  <compound>
CCCCCCCCCCCCCC(=O)OCC[N+](C)(C)Cc1cnc(C)c2c1COC(C)(C)O2.[Cl-]

>  <value.reported>
1.6

$$$$

Please look up its Ratio: CCCCCCCCCCCCCC(=O)OCC[N+](C)(C)Cc1nc(C)c2c(c1CO)COC(C)(C)O2.[Cl-]
1.8

###

Tested on: Staphylococcus aureus
assay.remarks: Antibacterial activity against clinical isolate methicillin-resistant Staphylococcus aureus 983 measured after 24 hrs by broth microdilution method
Format: functional
value.kind: MIC (µg/mL)
Give bare numbers, in µg/mL.

These recorded examples may help you get a feel for the data.
>  <compound>
CCCCCCCCCCCCCC(=O)NCC[N+](C)(C)Cc1cnc(C)c2c1COC(C)(C)O2.[Cl-]

>  <MIC [µg/mL]>
64

$$$$
>  <compound>
CCCCCCCCCCCCCC(=O)OCC[N+](C)(C)Cc1nc(C)c2c(c1CO)COC(C)(C)O2.[Cl-]

>  <MIC [µg/mL]>
32

$$$$

Would you mind listing MIC for each of the following compounds?
1. CCCCCCCCCCCCCC(=O)NCC[N+](C)(C)Cc1nc(C)c2c(c1CO)COC(C)(C)O2.[Cl-]
2. CCCCCCCCCCCCCCCCCC(=O)NCCC[N+](C)(C)Cc1cnc(C)c2c1COC(C)(C)O2.[Cl-]
3. CCCCCCCCCCCCCC(=O)OCC[N+](C)(C)Cc1cnc(C)c2c1COC(C)(C)O2.[Cl-]
4. CCCCCCCCCCCC(=O)NCC[N+](C)(C)Cc1cnc(C)c2c1COC(C)(CCC)O2.[Cl-] (stereo not given)
5. CCCCCCCCCCCCCC(=O)NCC[N+](C)(C)Cc1cnc(C)c2c1COC(C)(CCC)O2.[Cl-] (stereo not given)
6. CCCCCCCCCCCCCC(=O)OCC[N+](C)(C)Cc1cnc(C)c2c1COC(CCC)O2.[Cl-] (stereo not given)
7. CCCCCCCCCCCC(=O)OCCC[N+](C)(C)Cc1cnc(C)c2c1COC(CCC)O2.[Cl-] (stereo not given)

1: 32; 2: 64; 3: 64; 4: 16; 5: 16; 6: 64; 7: 32

###

assay.remarks: Genotoxicity in Salmonella typhimurium TA100 assessed as number of revertant by Ames spot test relative to solvent control
Assay type: toxicity
conditions: salmonella enterica subsp. enterica serovar typhimurium
Outcome: true (1) for Ratio of at least 2; false (0) for anything lower.

Answered examples (3):
>  <compound>
CCCCCCCCCCCCCC(=O)NCC[N+](C)(C)Cc1nc(C)c2c(c1CO)COC(C)(C)O2.[Cl-]

>  <class.assignment>
false (0)

$$$$
>  <compound>
COS(C)(=O)=O

>  <class.assignment>
true (1)

$$$$
>  <compound>
CCCCCCCCCCCCCC(=O)OCC[N+](C)(C)Cc1cnc(C)c2c1COC(CCC)O2.[Cl-] (stereo not given)

>  <class.assignment>
false (0)

$$$$

Dear colleague, could you confirm whether CCCCCCCCCCCC(=O)OCCC[N+](C)(C)Cc1cnc(C)c2c1COC(CCC)O2.[Cl-] (stereo not given) has Ratio at or above 2?
true (1)

Now this one: CCCCCCCCCCCCCC(=O)NCC[N+](C)(C)Cc1cnc(C)c2c1COC(C)(C)O2.[Cl-]
false (0)

###

assay.remarks: Genotoxicity in Salmonella typhimurium TA1535/pSK1002 assessed as DNA-damage activity by measuring beta-galactosidase activity at 150 ug/ml measured by SOS-chromotest relative to solvent control
Assay type: toxicity
conditions: salmonella enterica subsp. enterica serovar typhimurium; dose 150 µg/ml
For each record, write down the corresponding Ratio.
Numbers only.

These recorded examples may help you get a feel for the data.
>  <compound>
CCCCCCCCCCCC(=O)OCCC[N+](C)(C)Cc1cnc(C)c2c1COC(CCC)O2.[Cl-] (centres undefined)

>  <value.kind>
Ratio

>  <value.reported>
1.1

$$$$
>  <compound>
CCCCCCCCCCCCCC(=O)OCC[N+](C)(C)Cc1nc(C)c2c(c1CO)COC(C)(C)O2.[Cl-]

>  <value.kind>
Ratio

>  <value.reported>
0.9

$$$$
>  <compound>
CCCCCCCCCCCCCC(=O)NCC[N+](C)(C)Cc1nc(C)c2c(c1CO)COC(C)(C)O2.[Cl-]

>  <value.kind>
Ratio

>  <value.reported>
0.7

$$$$
>  <compound>
CCCCCCCCCCCCCC(=O)NCC[N+](C)(C)Cc1cnc(C)c2c1COC(C)(C)O2.[Cl-]

>  <value.kind>
Ratio

>  <value.reported>
0.5

$$$$

Would you mind listing Ratio for each of the following compounds?
1. CCCCCCCCCCCCCC(=O)OCC[N+](C)(C)Cc1cnc(C)c2c1COC(C)(C)O2.[Cl-]
2. CCCCCCCCCCCCCC(=O)NCCC[N+](C)(C)Cc1cnc(C)c2c1COC(C)(C)O2.[Cl-]

1: 0.6; 2: 0.5

Would you mind listing Ratio for each of the following compounds?
1. CCCCCCCCCCCCCC(=O)OCC[N+](C)(C)Cc1cnc(C)c2c1COC(CCC)O2.[Cl-] (centres undefined)
2. CCCCCCCCCCCC(=O)NCC[N+](C)(C)Cc1cnc(C)c2c1COC(C)(CCC)O2.[Cl-] (centres undefined)
3. CCCCCCCCCCCCCC(=O)NCC[N+](C)(C)Cc1cnc(C)c2c1COC(C)(CCC)O2.[Cl-] (centres undefined)

1.3
0.5
0.5

###

assay.remarks: Lipophilicity, logP of the compound
Assay type: physicochemical
conditions: octanol/water
For each record, write down the corresponding logP.
One number for each entry.

These recorded examples may help you get a feel for the data.
>  <molecule>
CCCCCCCCCCCCCCCCCC(=O)NCC[N+](C)(C)Cc1cnc(C)c2c1COC(C)(CCC)O2.[Cl-] (stereo not drawn)

>  <value.kind>
logP

>  <value.reported>
4.02

$$$$
>  <molecule>
CCCCCCCCCCCCCCCCCC(=O)NCCC[N+](C)(C)Cc1cnc(C)c2c1COC(C)(C)O2.[Cl-]

>  <value.kind>
logP

>  <value.reported>
3.25

$$$$

Pending molecule:
Please look up its logP: CCCCCCCCCCCC(=O)NCCC[N+](C)(C)Cc1cnc(C)c2c1COC(C)(CCC)O2.[Cl-] (stereo not drawn)
1.41

###

System: Bacillus subtilis
assay.remarks: Antibacterial activity against Bacillus subtilis 168 measured after 24 hrs by broth microdilution method
Assay type: functional
value.kind: MIC (µg/mL)
Numbers only, in µg/mL.

Would you mind listing MIC for each of the following compounds?
1. CCCCCCCCCCCCCC(=O)NCCC[N+](C)(C)Cc1ccccc1.[Cl-]
2. CCCCCCCCCCCCCC(=O)NCC[N+](C)(C)Cc1cnc(C)c2c1COC(C)(C)O2.[Cl-]
3. CCCCCCCCCCCCCCCC(=O)NCC[N+](C)(C)Cc1cnc(C)c2c1COC(C)(C)O2.[Cl-]
4. CCCCCCCCCCCCCCCC(=O)NCCC[N+](C)(C)Cc1cnc(C)c2c1COC(C)(C)O2.[Cl-]

4
4
4
2

###

For each record, write down the corresponding MIC.
Tested on: Bacillus subtilis
assay.remarks: Antibacterial activity against Bacillus subtilis 168 measured after 24 hrs by broth microdilution method
Type: functional

>  <compound>
CCCCCCCCCCCCCC(=O)NCCC[N+](C)(C)Cc1nc(C)c2c(c1CO)COC(C)(C)O2.[Cl-]

>  <target.or.system>
Bacillus subtilis

>  <MIC>
2 µg/mL

$$$$

Would you mind listing MIC for each of the following compounds?
1. CCCCCC(=O)NCCC[N+](C)(C)Cc1cnc(C)c2c1COC(C)(C)O2.[Cl-]
2. CCCCCCCC[N+](C)(C)Cc1nc(C)c2c(c1CO)COC(C)(C)O2.[Cl-]
3. CCCCCCCCCCCCCC(=O)OCCC[N+](C)(C)Cc1cnc(C)c2c1COC(C)(C)O2.[Cl-]

1: > 64 µg/mL; 2: 64 µg/mL; 3: 2 µg/mL

Please look up its MIC: CCCCCCCCCCCCCC(=O)NCCC[N+](C)(C)Cc1nc(C)c2c(c1CO)COC(CCC)O2.[Cl-] (stereo not given)
1 µg/mL
